The entries below are paired with their reported Population Pyknosed Nuclei (%).
System: U2OS
Test: Multiplex assay against U2OS
Type: toxicity, cell-based
Conditions: human, 12 h, 10 µM, compound concentration 10 uM, replicate 1

- structureSmiles: "O=C1COc2nccc(-c3ccccc3F)c2CN1Cc1cc(C(F)(F)F)cc(C(F)(F)F)c1"
  readoutUnit: "%"
  Population Pyknosed Nuclei (%): 16
- structureSmiles: "COc1cc(C(=O)N(CCCc2ccccc2)Cc2ccc(CC(=O)O)cc2)cc(OC)c1C"
  readoutUnit: "%"
  Population Pyknosed Nuclei (%): 6
- structureSmiles: "N[C@@]1(C(=O)O)CO[C@H]2[C@H](C(=O)O)[C@H]21"
  readoutUnit: "%"
  Population Pyknosed Nuclei (%): 7
- structureSmiles: "CCOc1c2c(c(OCC)c3ncccc13)CN(c1ccc(CS(=O)(=O)NC(=O)Cc3ccccc3OC)cc1C)C2=O"
  readoutUnit: "%"
  Population Pyknosed Nuclei (%): 6

* * *

Test system: Fibroblast
Assay: Multiplex assay against human fibroblast
Format: toxicity, cell-based
Details: 24 h, 1 µM, compound concentration 1 uM, replicate 1
Cut-off 2% on Population Hoechst High Intensity Objects (%), inclusive. At or above means label 1; below means label 0.

- molecule: "N[C@@]1(C(=O)O)CO[C@H]2[C@H](C(=O)O)[C@H]21"
  groupLabel: "label 0"
- molecule: "CC(=O)NCCc1c(Cc2ccccc2)[nH]c2ccccc12"
  groupLabel: "label 0"
- molecule: "CCOc1c2c(c(OCC)c3ncccc13)CN(c1ccc(CS(=O)(=O)NC(=O)Cc3ccccc3OC)cc1C)C2=O"
  groupLabel: "label 1"
- molecule: "COc1cc(C(=O)N(CCCc2ccccc2)Cc2ccc(CC(=O)O)cc2)cc(OC)c1C"
  groupLabel: "label 0"
- molecule: "CCCC(CCC)C(=O)O"
  groupLabel: "label 1"
- molecule: "N#Cc1c(N)nc(SCc2csc(-c3ccc(Cl)cc3)n2)c(C#N)c1-c1ccc(OCCO)cc1"
  groupLabel: "label 0"
- molecule: "Oc1c(CN2CCN(c3ccccn3)CC2)cc(Cl)c2cccnc12"
  groupLabel: "label 1"
- molecule: "CNC[C@H](O)c1ccc(O)c(O)c1 [EPINEPHRINE]"
  groupLabel: "label 0"

* * *

compounds and their reported Total Cell Count
Test system: HEK-293T
Experiment: Multiplex assay against HEK293T
Format: toxicity, cell-based
Details: human, 12 h, 1 µM, compound concentration 1 uM, replicate 1

- structureSmiles: "O=C(O)Cc1ccccc1Nc1c(Cl)cccc1Cl"
  measuredOn: "HEK-293T"
  Total Cell Count: 376
- structureSmiles: "COc1cc(C(=O)N(CCCc2ccccc2)Cc2ccc(CC(=O)O)cc2)cc(OC)c1C"
  measuredOn: "HEK-293T"
  Total Cell Count: 395
- structureSmiles: "CC1(COc2ccc3c(c2)ncn3-c2ccc3cccc(N4CCC(N)CC4)c3n2)COC1"
  measuredOn: "HEK-293T"
  Total Cell Count: 412
- structureSmiles: "CCCC(CCC)C(=O)O"
  measuredOn: "HEK-293T"
  Total Cell Count: 513
- structureSmiles: "CN1CCN(c2nc3cc(C(F)(F)F)ccc3n3cccc23)CC1.O=C(O)/C=C\\C(=O)O.O=C(O)/C=C\\C(=O)O"
  measuredOn: "HEK-293T"
  Total Cell Count: 438

* * *

Test system: HEK-293T
Experiment: Multiplex assay against HEK293T
Format: toxicity, cell-based
Details: human, 24 h, 1 µM, compound concentration 1 uM, replicate 2
quantity: Population Tubulin-Different-Phenotype (%)

- compound: "CN(C)CCCc1cc(C(=O)Nc2ccc(-c3ccncc3)cc2)ccc1O.Cl.Cl"
  resultValue: 9
- compound: "C[C@H](NC(=O)c1c(C(F)F)nn(C)c1Oc1cccc(C(F)(F)F)c1)c1ccc(C(=O)O)cc1 [PALUPIPRANT]"
  resultValue: 19
- compound: "O=C(NCCO)c1cccc(-c2cc(Nc3ccc(OC(F)(F)F)cc3)ncn2)c1"
  resultValue: 17
- compound: "C[C@H]1[C@H]2CC[C@H]3[C@@H]4CC=C5C[C@@H](N(C)C)CC[C@]5(C)[C@H]4CC[C@]23CN1C [CONESSINE]"
  resultValue: 16
- compound: "CCCN1CCC[C@@H]2Cc3n[nH]cc3C[C@H]21.Cl [QUINPIROLE HYDROCHLORIDE]"
  resultValue: 16
- compound: "CC[C@H]1OC(=O)[C@H](C)[C@@H](O[C@H]2C[C@@](C)(OC)[C@@H](O)[C@H](C)O2)[C@H](C)[C@@H](O[C@@H]2O[C@H](C)C[C@H](N(C)C)[C@H]2O)[C@@]2(C)CC(C)=C(O2)[C@H](C)[C@@H](O)[C@]1(C)O"
  resultValue: 22
- compound: "O=S(=O)(c1ccccc1)c1cnc2c(N3CCNCC3)cccc2c1 [INTEPIRDINE]"
  resultValue: 14
